- ASSAY_EXPLANATION: label from the status in PepcDB records

SEQUENCE_CHAIN	protein production
MALTEAWLIEKANRKLNAGGMYKITSDKTRNVIKKMAKEGIYLCVAQGYRSTAEQNALYAQGRTKPGAIVTNAKGGQSNHNYGVAVDLCLYTNDGKDVIWESTTSRWKKVVAAMKAEGFKWGGDWKSFKDYPHFELCDAVSGEKIPAATQNTNTNSNRYEGKVIDSAPLLPKMDFKSSPFRMYKVGTEFLVYDHNQYWYKTYINDKLYYMYKSFCDVVAKKDAKGRIKVRIKSAKDLRIPVWNNTKLNSGKIKWYAPNTKLAWYNNGKGYLELWYPSDGWYYTANYFLK	failed
MVKLDRYIGVTVFVAILAVLGVILGLALLFAFIDELNDISASYGIGDALRFIFLTAPRRAYDMLPMAALIGCLVGLGTLASNSELTIMRAAGVSLSRIVWAVMKPMLVLMLAGILVGEYVAPWTENIAQSGRALAQGGGDSQSSKRGLWHRQGREYIHINAVQPNGVLYGVTRYRFDEQRGLESASFAKRARFETDHWQLEEVTTTLLHPREKRSEVVKLPTERWDAQLSPQLLNTVVMEPEALSISGLWQYIHYLADQGLNNNRYWLAFWTKVLQPLVTAALVLMAISFIFGPLRSVTLGQRIFTGVLVGFVFRIAQDLLGPSSLVFDFPPLLAVVIPASICALAGVWLLRRAG	failed
MSIKAGFDDRALARVEAAIRADVESGIYDGAVIKVARHGQIALDATIGFSNRRAGAAMREDAVFKVLSLTKAFTTTLVLEAIDLGLLSLTTRVVDVIPEFWGRDLFRSGRKERVNVGHLLTHRAGLSPTPQPLPYDQLHNFSETIQAICALDVVGEPGKAFNYSPTVNHALLGEMVRRVHGAASLAELMDQRLFSRLGMSSTSLGPTSQIRDRLVPLTSDFPEGGWLTNADIKAVADAIEAPNSQMPWVGAMTSAQDVFVFAEMLREQGTVRDERILSPAVVRKATTLQTGDAINDLYKLLADARHWDLPAGNMGLGFALGGDGLTVSQFGTLTSPGTFGNFGAGSTLFWVDPESQITFVCLTAKVMEESENILRFQRLSDLVASAAL	failed

---

- ASSAY_EXPLANATION: label from the status in PepcDB records
QUANTITY: protein production

The following sequences have reported results that may help.
SEQUENCE_CHAIN	RESULT
MFKAPFSFDGRIRRIEYFLSGIIGGIVFGVAYSLGLATLFLGAAAGSAGGSLFGILIGIVAGIASIWFSLAQGVKRLHDLNKSGWLILICCVPIIGWVFSLYMLFADGTVGPNQYGEDPKNRMPYQPQPTSVNVTVNVSRETPAEAPAEEEKTEKAE	failed
LQTLCDILRADPADSRTLTELGREIGASDRTLSRLFRSELGMTFPQWRTQLRLHHALVLLADSTPVTAVAHLCGWSSASAFIDAFRRTFGHTPGARPRD	failed
MSLEKPYIISVYALIRNEKGEFLLLRRSENSRTNAGKWDLPGGKVNPDESLKEGVAREVWEETGITMVPGDIAGQVNFELTEKKVIAIVFDGGYVVADVKLSYEHIEYSWVSLEKILGMETLPAYFRDFFERFDRENKKPSKLFIEGHHHHHH	not failed
SEPPKMNPVVEPLSWMLGTWLSDPPGAGTYPTLQPFQYLEEVHISHVGQPMLNFSFNSFHPDTRKPMHRECGFIRLKPDTNKVAFVSAQNTGVVEVEEGEVNGQELCIASHSIARISFAKEPHVEQITRKFRLNSEGKLEQTVSMATTTQPMTQHLHVTYKKVTP	not failed

Exam item: // returns reported protein production for input MQKSEGSGGTQLKNRATGNYDQRTSSSTQLKHRNAVQGSKSSLSTSSPESARKLHPRPSDKLNPKTINPFGEQSRVPSAFAAIYSKGGIPCRLVHGSVKHRLQWECPPESLSFDPLLITLAEGLRETKHPYTFVSKEGFRELLLVKGAPEKAIPLLPRLIPVLKAALVHSDDEVFERGLNALVQLSVVVGPSLNDHLKHLLTSGSLSIIKSKIPTYCSICC
Marked response: failed

---

- ASSAY_EXPLANATION: label from the status in PepcDB records
QUANTITY: protein production

The following sequences have reported results that may help.
SEQUENCE_CHAIN	RESULT
MSVTVRVPAKVNVQLAVGAARPDGFHDLANVFLAVSLYDEVTATPAADGLRVTCEGPDAGQVPLDRTNLAARAAEALAARYGRAPDVHLHIAKDIPVAGGMAGGSADGAGALLACDALWGTGASREELLEICAGLGSDVPFSLVGGAALGTGRGERLAELE	failed
GSHFYFLSKRRRNLLRNPCGEEDLEGWSDVEHGGDGWKVEELPGDNGVEFTQDDSVKKYFASSFEWCRKAQVIDLQAEGYWEELLDTTQPAIVVKDWYSGRTDAGSLYELTVRLLSENEDVLAEFATGQVAVPEDGSWMEISHTFIDYGPGVRFVRFEHGGQDSVYWKGWFGARVTNSSVWVEP	not failed
GNQSTSSKGSDTKKEQITVKHQLDKNGTKVPKNPKKVVVFDFGSLDTLDKLGLDDIVAGLPKQVLPKYLSKFKDDKYADVGSLKEPDFDKVAELDPDLIIISARQSESYKEFSKIAPTIYLGVDTAKYMESFKSDAETIGKIFDKEDKVKDELANIDHSIADVKKTAEKLNKNGLVIMANDGKISAFGPKSRYGLIHDVFGVAPADQNIKASTHGQSVSYEYISKTNPDYLFVIDRGTAIGETSSTKQVVENDYVKNVNAVKNGHVIYLDSATWYLSGGGLESMTQMIKEVKDGLEK	not failed
MSLDVLTNFAQIQSFTALAIGIMIGLAALGAGLGLAIMAGKFLESAARQPELIPLLQVRMFIAAGLIDAAFIISVAVGLLLAFANPLSSTLLVAVSKALAG	failed
MKKSKHLKRPYLKRSHLKHSDKASSFKGLLKKEDNVISLENFKPKESEDLLENFSNKKDMQELLGLLNQFILQSYKVEKEFKDYKALYEWVIEILPQAIWVVNENGSFFYKNSLANQSHEVFNKAKLENFNTEIEHENKSYLVQQNSIQGKQIITATDISAQKRQERLASMGKISAHLAHEIRNPVGSISLLASVLLKHANEKTKPIVVELQKALWRVERIIKATLLFSKGIQANRTKQSLKTLESDLKEALNCYTYSKDIDFLFNFSDEEGFFDFDLMGIVLQNFLYNAIDAIEALEESEQGQVKIEAFIQNEFIVFTIIDNGKEVENKSALFEPFETTKLKGNGLGLALSLQVVKAHEGSIALLENQEKTFEIKILNAS	failed

Exam item: // returns reported protein production for input HYRRALSGPVDPGLAVFSAYWDRGVSCNPAAIAAKLAELAPHIHPVWVVARNKAALLPPGTDHIVPGTRRYWEVMARAKYLVNNVNFPNSVVKRPDAIHLQTHHGTPLKRMGLDQREFPAASKGLDFGALLARIDKWDYSVSANSHSTRMWERAYPSHYISLDHGYPRNDVFYSATADDIRAIRDRLGIPPGRRAILYAPTHRDYEAGWTPRLDLASLADRLGEETVLLVRGHYFYGGAASPLAGLRRSGRVIDVSTYDPVEELCLAADALVTDYSSIMFDYANLNRPIVIYADDWETYAKTRGVYFDLMAEGPGQVTRTQDELAAVFESGAWRDEGARKALSAFRRRFCEFDDGRAAERVVR
Marked response: failed

Exam item: // returns reported protein production for input MLDHFGSDPVFSPEQVLENRGRVAIFIDGSNLFYAALQLGIEIDYSKLLYRLTGGSRLLRSFFYTGVDRANEKQQGFLLWMRRNGYRVIAKDLVQLPDGSKKANLDVEIAVDMMALVGSYDTAVLVSGDGDLAYAVDAVSYRGARVEVVSLRSMTSDSLINVADRYIDLEQIQTDIQKLHRGQFSEPRLMEDRGGGTIELPSHE
Marked response: failed

---

- ASSAY_EXPLANATION: label from the status in PepcDB records
QUANTITY: protein production

The following sequences have reported results that may help.
SEQUENCE_CHAIN	QUANTITY	RESULT
MGREIFNRRLPDNYNDFSHSMDNAANGHYFLRVASSNYKRPDGKNVRTVRDVIAEVDQNGVVVDEWRLFDILDPYRDVIMKTLDQGAVCLNIDASQSGHTLSEEDLAALDSSDKFGDIVGSGAGRNWAHVNSVDYDSEDDSIIISSRHQSAIIKIGRDKKVKWILGTPAGWKAPFNAAILTPVDSKGQKIACQDSGCEGDFDWTWTQHTAFKIDSKSKGDILYLSAFDNGDGRGLEQPAMQSMKYSRSVIYKIDQKNKTVQQIWQYGKERGNEWFSPVTSITEYQTDKNSVFVYSATAGGAFDLSVGAFTSLPNPYLEEFKWGEKEPAVEMQIHGARGYQAMPFSLTKALTELEHHHHHH	protein production	failed
DVLSSSNFILPDGIGVVMMSRLTNNRLQSRIAGYDVFKELLGVANKKKKRIFLYGAKKDVIKGVVSKISSEYPNIKIAGYSDGYVQDRTLVAKQIARANPDMVFVALGYPHQEKFIHNYRHLFPKAVSIGLGGSFDVFSGNVKRAPSWMIRLNLEWFYRLILNPWRWKRM	protein production	not failed
MMVETATVVQYQNGKALVRCSVKTACGNCGAKADCGTQLLSSLVKERVPHFELSVNMPLVAGDMVKIGLPEQTLLWSIFWIYVVPLMVLIGSAVGFTQLFANELVVVFMMFICTSMTFFSIKKIIDKKQLSQLNPIFLGRVE	protein production	failed
MLQPGGTPTKIVCLTQVVTADDLRDDAEYADIMEDMSQEGGKFGNLVNVVIPRPNPDHDPTPGVGKVFLEYADVDGSSKARSGMNGRKFGGNQVVAVYYPEDKYAQGDYED	protein production	failed
MSQLNSVWVFSDNPERYAELFGGAQQWGQQVYAIVQNTEQAQAVMPYGPKCIYVLEQNDALQRTENYAESIAALLKDKHPAMLLLAATKRGKALAARLSVQLNAALVNDATAVDIVDGHICAEHRMYGGLAFAQEKINSPLAIITLAPGVQEPCTRDISHQCPTETVPYVAPRHEILCRERRAKAASSVDLSKAKRVVGVGRGLAAQDDLKMVHELAAVLNAEVGCSRPIAEGENWMERERYIGVSGVLLKSDLYLTLGISGQIQHMVGGNGAKVIVAINKDKNAPIFNYADYGLVGDIYKVVPALISQLNR	protein production	failed

As a next step, examine the sequence that follows.
Exam item: // returns reported protein production for input LRESEARFRMMADTSPIMLWVADQDKKMTFVNQSWLEFRGATLAEESGNGYLEGIHPDDKGHYLGVYSQAFGDRRRFELEYRYRRVDQQYRWIVNVGVPRYLEDGKFMGYVGSCLDITDRKQAQDILQKKLNQILLMRKISQEIRRSLQPTLIFQTAARQVGNVFAVSRCLIHNYSEATTLQVPVVAEYLGGQFTSLLAGEIAVEQAYDPTIIQGDRAMAVVDLDQDLNSTHTKAFYQRFQVKSFLAVRTSYQGKANGIIALHQCDRQRVWTADEIELLEAIAEQMGIALAQAALLEKERERRRELAQKNLELEKATWAAEAANRAKGEFLAMMSHEIRTPMNGVIGMT
Marked response: failed
